ELISA HSA (RSU): recorded values
- tested.system: human serum albumin (human) (UniProt P02768)
- Sequence (P02768 25-609 limits assumed): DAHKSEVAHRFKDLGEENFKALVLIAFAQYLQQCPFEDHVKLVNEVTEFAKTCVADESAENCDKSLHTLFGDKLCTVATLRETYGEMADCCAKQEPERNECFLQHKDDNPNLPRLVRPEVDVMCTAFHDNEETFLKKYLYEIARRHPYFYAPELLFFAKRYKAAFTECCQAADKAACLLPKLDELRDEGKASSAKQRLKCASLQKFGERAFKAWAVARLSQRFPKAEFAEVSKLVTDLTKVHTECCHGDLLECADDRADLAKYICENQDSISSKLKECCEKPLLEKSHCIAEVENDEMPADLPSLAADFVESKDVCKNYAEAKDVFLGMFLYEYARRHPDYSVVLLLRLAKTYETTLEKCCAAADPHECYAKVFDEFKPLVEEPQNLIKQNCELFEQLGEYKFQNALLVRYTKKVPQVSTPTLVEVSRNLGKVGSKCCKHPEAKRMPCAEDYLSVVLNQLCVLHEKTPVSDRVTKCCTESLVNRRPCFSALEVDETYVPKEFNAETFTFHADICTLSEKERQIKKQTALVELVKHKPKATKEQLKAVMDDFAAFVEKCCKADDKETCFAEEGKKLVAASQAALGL
- protocol.description: ELISA, lysate on plate-bound antigen
Give your result in RSU as a bare value.

- binder: "ISOP194HR9P1B2 (designed binder, not shown: small tags and cut ends, FN3 domain; E. coli lysate in the ELISA) LPAPKNLVVSRVTEDSARLSWTAPDAAFDSFSILYGELIGDGEAIVLTVPGSERSYDLTGLKPGSEYTVYIFGVKGGRYSRPLSAIFTT"
  uom: "RSU"
  ELISA HSA (RSU): 1840

Could you now look at the following binder, please?
QUERY: Return reported ELISA HSA (RSU); argument: ISOP121AR5P1C5 (designed binder, not shown: small tags and cut ends, FN3 domain; E. coli lysate in the ELISA) LPAPKNLVVSRVTEDSARLSWKRSDDEWFDSFLIQYQESEKVGEAIILTVPGSERSYDLTGLKPGTEYTVSIYGVYQRAALWFSNPLSAIFTT
RESULT: 560
